- assay: logp: n-octanol/water partition coefficient by reversed phase HPLC
- Type: physicochemical
- experimental-parameters: h2o/ch3cn, read-out: logp (logarithm to base ten of the n-octanol/water partition coefficient)
readout-label: chromatographic logP

- molecule: "CCCCON=C1CCC(c2ccc(C3COC(c4c(F)cccc4F)=N3)cc2)CC1 (centres unmarked) [Example 36]"
  readout-number: 4.95
- molecule: "Fc1cccc(F)c1C1=NC(c2ccc(C3CCC(=NOCc4ccc(Cl)cc4Cl)CC3)cc2)CO1 (centres unmarked) [Example 21]"
  readout-number: 5.92
- molecule: "O=C1CCC(c2ccc(C(CCl)NC(=O)c3c(F)cccc3F)cc2)CC1 (centres unmarked)"
  readout-number: 2.54
- molecule: "Fc1cccc(F)c1C1=NC(c2ccc(C3CCC(=NOCc4ccc(C(F)(F)F)cc4Cl)CC3)cc2)CO1 (centres unmarked) [Example 20]"
  readout-number: 5.91
- molecule: "CCC1(CC)COC2(CCC(c3ccc(C4COC(c5c(F)cccc5F)=N4)cc3)CC2)OC1 (centres unmarked) [Example 38]"
  readout-number: 5.4
- molecule: "CCCC1(C)COC2(CCC(c3ccc(C4COC(c5c(F)cccc5F)=N4)cc3)CC2)OC1 (centres unmarked) [Example 37]"
  readout-number: 5.46
- molecule: "CCC1COC2(CCC(c3ccc(C4COC(c5c(F)cccc5F)=N4)cc3)CC2)O1 (centres unmarked) [Example 27]"
  readout-number: 4.43
- molecule: "CC1COC2(CCC(c3ccc(C4COC(c5c(F)cccc5F)=N4)cc3)CC2)OC1 (centres unmarked) [Example 52]"
  readout-number: 3.99
- molecule: "COC1(OC)CCC(c2ccc(C3COC(c4c(F)cccc4F)=N3)cc2)CC1 (centres unmarked) [Example 8]"
  readout-number: 3.8
- molecule: "Fc1cccc(F)c1C1=NC(c2ccc(C3CCC4(CC3)OCC(c3cccc(Cl)c3Cl)O4)cc2)CO1 (centres unmarked) [Example 25]"
  readout-number: 6.07
- molecule: "CCCC1COC2(CCC(c3ccc(C4COC(c5c(F)cccc5F)=N4)cc3)CC2)O1 (centres unmarked) [Example 28]"
  readout-number: 4.52
- molecule: "CC(C)C1(c2ccc(Cl)cc2)COC2(CCC(c3ccc(C4COC(c5c(F)cccc5F)=N4)cc3)CC2)OC1 (centres unmarked) [Example 47]"
  readout-number: 6.15
- molecule: "OC1CCC(c2ccc(C3COC(c4c(F)cccc4F)=N3)cc2)CC1 (centres unmarked) [Example 7]"
  readout-number: 2.74
- molecule: "CC1(c2ccccc2)COC2(CCC(c3ccc(C4COC(c5c(F)cccc5F)=N4)cc3)CC2)OC1 (centres unmarked) [Example 40]"
  readout-number: 5.11
- molecule: "CC(C)ON=C1CCC(c2ccc(C3COC(c4c(F)cccc4F)=N3)cc2)CC1 (centres unmarked) [Example 4]"
  readout-number: 4.5
- molecule: "Fc1cccc(F)c1C1=NC(c2ccc(C3CCC4(CC3)OCC(c3ccc(Cl)cc3)O4)cc2)CO1 (centres unmarked) [Example 5]"
  readout-number: 5.37
- molecule: "Fc1cccc(F)c1C1=NC(c2ccc(C3CCC(=NOCc4ccccc4)CC3)cc2)CO1 (centres unmarked) [Example 12]"
  readout-number: 4.7
